Test system: patients with AKI
Set-up: species or system human
test settings: in vivo
Short version: Coefficient at least -0.04 is yes, less is no.

- compound: "Cc1ncc2n1-c1ccc(Cl)cc1C(c1ccccc1F)=NC2"
  discrete label: "yes"
- compound: "COc1ccc2c3c1O[C@H]1C(=O)CC[C@@]4(O)[C@@H](C2)N(C)CC[C@]314"
  discrete label: "no"
- compound: "Cc1nccn1CC1CCc2c(c3ccccc3n2C)C1=O (centres unmarked)"
  discrete label: "yes"
- compound: "COCCc1ccc(OCC(O)CNC(C)C)cc1 (centres unmarked)"
  discrete label: "no"
- compound: "NCCCC[C@H](N[C@@H](CCc1ccccc1)C(=O)O)C(=O)N1CCC[C@H]1C(=O)O"
  discrete label: "no"
- compound: "O=C(CCCN1CCC(O)(c2ccc(Cl)cc2)CC1)c1ccc(F)cc1"
  discrete label: "no"
- compound: "NS(=O)(=O)c1cc(C(=O)O)c(NCc2ccco2)cc1Cl [Furosemide]"
  discrete label: "yes"
- compound: "CCCCC(CC)COC(=O)CC(C(=O)OCC(CC)CCCC)S(=O)(=O)O (centres unmarked) [Docusate]"
  discrete label: "yes"
- compound: "CC(=O)CC(c1ccccc1)c1c(O)c2ccccc2oc1=O (centres unmarked)"
  discrete label: "no"
- compound: "NNc1nncc2ccccc12 [Hydralazine]"
  discrete label: "yes"

---

Some compounds, each annotated with its measured Death rate in MIMIC III database.
Test system: patients with AKI
test settings: human, in vivo

- compound: "N[C@@H](Cc1cc(I)c(Oc2cc(I)c(O)c(I)c2)c(I)c1)C(=O)O"
  Death rate in MIMIC III database: "218.39 per 1,000 patients"
- compound: "CC(C)[N+]1(C)[C@@H]2CC[C@H]1C[C@@H](OC(=O)C(CO)c1ccccc1)C2 (stereo partly shown)"
  Death rate in MIMIC III database: "258.87 per 1,000 patients"
- compound: "C[C@H]1COc2c(N3CCN(C)CC3)c(F)cc3c(=O)c(C(=O)O)cn1c23"
  Death rate in MIMIC III database: "270.20 per 1,000 patients"
- compound: "O=[N+]([O-])OCC(CO[N+](=O)[O-])O[N+](=O)[O-]"
  Death rate in MIMIC III database: "192.42 per 1,000 patients"
- compound: "Cc1ncc([N+](=O)[O-])n1CCO"
  Death rate in MIMIC III database: "338.05 per 1,000 patients"
- compound: "CC(=O)Nc1ccc(O)cc1"
  Death rate in MIMIC III database: "181.26 per 1,000 patients"
- compound: "CCN(CC)CCNC(=O)c1cc(Cl)c(N)cc1OC [Metoclopramide]"
  Death rate in MIMIC III database: "248.67 per 1,000 patients"
- compound: "CC(C)c1cccc(C(C)C)c1O"
  Death rate in MIMIC III database: "287.82 per 1,000 patients"
- compound: "CC(=O)CC(c1ccccc1)c1c(O)c2ccccc2oc1=O (stereo not shown)"
  Death rate in MIMIC III database: "67.31 per 1,000 patients"
- compound: "CC(=O)Oc1ccccc1C(=O)O"
  Death rate in MIMIC III database: "178.97 per 1,000 patients"
- compound: "NC(N)=Nc1nc(CSCCC(N)=NS(N)(=O)=O)cs1"
  Death rate in MIMIC III database: "260.79 per 1,000 patients"
- compound: "C[C@@H](O)[C@H]1C(=O)N2C(C(=O)O)=C(S[C@@H]3CN[C@H](C(=O)N(C)C)C3)[C@H](C)[C@H]12"
  Death rate in MIMIC III database: "460.50 per 1,000 patients"
- compound: "CC(=O)Oc1ccc(C(c2ccc(OC(C)=O)cc2)c2ccccn2)cc1"
  Death rate in MIMIC III database: "194.46 per 1,000 patients"
- compound: "CC(C)(C)NCC(O)c1ccc(O)c(CO)c1 (stereo not shown)"
  Death rate in MIMIC III database: "257.20 per 1,000 patients"
- compound: "CN1CC[C@]23c4c5ccc(O)c4O[C@H]2[C@@H](O)C=C[C@H]3[C@H]1C5"
  Death rate in MIMIC III database: "376.48 per 1,000 patients"
- compound: "NCCCC[C@H](N[C@@H](CCc1ccccc1)C(=O)O)C(=O)N1CCC[C@H]1C(=O)O"
  Death rate in MIMIC III database: "53.11 per 1,000 patients"
- compound: "CO/N=C(\\C(=O)N[C@@H]1C(=O)N2C(C(=O)[O-])=C(C[N+]3(C)CCCC3)CS[C@H]12)c1csc(N)n1 [Cefepime]"
  Death rate in MIMIC III database: "340.81 per 1,000 patients"
- compound: "NNc1nncc2ccccc12 [Hydralazine]"
  Death rate in MIMIC III database: "155.12 per 1,000 patients"
- compound: "COc1ccc2c3c1O[C@H]1C(=O)CC[C@@]4(O)[C@@H](C2)N(C)CC[C@]314"
  Death rate in MIMIC III database: "94.98 per 1,000 patients"
- compound: "OC(Cn1cncn1)(Cn1cncn1)c1ccc(F)cc1F"
  Death rate in MIMIC III database: "333.33 per 1,000 patients"
- compound: "C[C@H](CS)C(=O)N1CCC[C@H]1C(=O)O"
  Death rate in MIMIC III database: "133.04 per 1,000 patients"
- compound: "CC1=C(C/C=C(\\C)CCC[C@H](C)CCC[C@H](C)CCCC(C)C)C(=O)c2ccccc2C1=O"
  Death rate in MIMIC III database: "364.17 per 1,000 patients"
- compound: "COc1ccnc(C[S+]([O-])c2nc3ccc(OC(F)F)cc3[nH]2)c1OC (stereo not shown)"
  Death rate in MIMIC III database: "254.46 per 1,000 patients"
- compound: "COCCc1ccc(OCC(O)CNC(C)C)cc1 (stereo not shown)"
  Death rate in MIMIC III database: "169.99 per 1,000 patients"
- compound: "CC(C)c1c(C(=O)Nc2ccccc2)c(-c2ccccc2)c(-c2ccc(F)cc2)n1CC[C@@H](O)C[C@@H](O)CC(=O)O"
  Death rate in MIMIC III database: "156.06 per 1,000 patients"
- compound: "CCN1CCN(C(=O)N[C@@H](C(=O)N[C@@H]2C(=O)N3[C@@H]2SC(C)(C)[C@@H]3C(=O)O)c2ccccc2)C(=O)C1=O"
  Death rate in MIMIC III database: "336.96 per 1,000 patients"
- compound: "NS(=O)(=O)c1cc(C(=O)O)c(NCc2ccco2)cc1Cl [Furosemide]"
  Death rate in MIMIC III database: "214.64 per 1,000 patients"
- compound: "C[C@@H]1C[C@H]2[C@@H]3CCC4=CC(=O)C=C[C@]4(C)[C@@]3(F)[C@@H](O)C[C@]2(C)[C@@]1(O)C(=O)CO"
  Death rate in MIMIC III database: "375 per 1,000 patients"

---

Some molecules, each annotated with its measured Death rate in MIMIC III database.
Tested on: patients with AKI
test settings: human, in vivo

- molecule: "CCCCC(CC)COC(=O)CC(C(=O)OCC(CC)CCCC)S(=O)(=O)O (centres unmarked) [Docusate]"
  Death rate in MIMIC III database: "178.57 per 1,000 patients"
- molecule: "NC[C@H](O)c1ccc(O)c(O)c1 [Norepinephrine]"
  Death rate in MIMIC III database: "497.51 per 1,000 patients"
- molecule: "C[C@]12C=CC(=O)C=C1CC[C@@H]1[C@@H]2C(=O)C[C@@]2(C)[C@H]1CC[C@]2(O)C(=O)CO"
  Death rate in MIMIC III database: "191.30 per 1,000 patients"
- molecule: "O=S(=O)([O-])[O-].[Mg+2] [Magnesium Sulfate]"
  Death rate in MIMIC III database: "203.36 per 1,000 patients"
- molecule: "CN[C@H](CC(C)C)C(=O)N[C@H]1C(=O)N[C@@H](CC(N)=O)C(=O)N[C@H]2C(=O)N[C@H]3C(=O)N[C@H](C(=O)N[C@H](C(=O)O)c4cc(O)cc(O)c4-c4cc3ccc4O)[C@H](O)c3ccc(c(Cl)c3)Oc3cc2cc(c3O[C@@H]2O[C@H](CO)[C@@H](O)[C@H](O)[C@H]2O[C@H]2C[C@](C)(N)[C@H](O)[C@H](C)O2)Oc2ccc(cc2Cl)[C@H]1O"
  Death rate in MIMIC III database: "300.03 per 1,000 patients"
- molecule: "[H]/N=C(\\N/C(=N/[H])NCCCCCCNC(=N)NC(=N)Nc1ccc(Cl)cc1)Nc1ccc(Cl)cc1"
  Death rate in MIMIC III database: "328.48 per 1,000 patients"
- molecule: "C=CC[C@@H]1/C=C(\\C)C[C@H](C)C[C@H](OC)[C@H]2O[C@@](O)(C(=O)C(=O)N3CCCC[C@H]3C(=O)O[C@H](/C(C)=C/[C@@H]3CC[C@@H](O)[C@H](OC)C3)[C@H](C)[C@@H](O)CC1=O)[C@H](C)C[C@@H]2OC"
  Death rate in MIMIC III database: "153.28 per 1,000 patients"
- molecule: "CCCCc1oc2ccccc2c1C(=O)c1cc(I)c(OCCN(CC)CC)c(I)c1"
  Death rate in MIMIC III database: "338.95 per 1,000 patients"
- molecule: "COc1ccc([C@@H]2Sc3ccccc3N(CCN(C)C)C(=O)[C@@H]2OC(C)=O)cc1"
  Death rate in MIMIC III database: "274.96 per 1,000 patients"
- molecule: "OC[C@H]1O[C@@H](O[C@@H]2[C@@H](CO)OC(O)(CO)[C@H]2O)[C@H](O)[C@@H](O)[C@H]1O (mixture of isomers)"
  Death rate in MIMIC III database: "326.35 per 1,000 patients"
- molecule: "Cc1nccn1CC1CCc2c(c3ccccc3n2C)C1=O (centres unmarked)"
  Death rate in MIMIC III database: "140.91 per 1,000 patients"
- molecule: "O=C(CCCN1CCC(O)(c2ccc(Cl)cc2)CC1)c1ccc(F)cc1"
  Death rate in MIMIC III database: "194.85 per 1,000 patients"
- molecule: "Cc1ncc2n1-c1ccc(Cl)cc1C(c1ccccc1F)=NC2"
  Death rate in MIMIC III database: "899.95 per 1,000 patients"
- molecule: "O=C1Nc2ccc(Cl)cc2C(c2ccccc2Cl)=NC1O (centres unmarked)"
  Death rate in MIMIC III database: "285.59 per 1,000 patients"
